Each recorded value in this set is attributed to patent EP0643699B1.

Test system: Yoshida ascites cells
experiment description: Cytotoxicity: incorporation of [3H]thymidine and [14C]uridine into trichloroacetic acid-insoluble fraction of cells
Type: cell-based, Wistar rats
measurement setup: Rattus norvegicus, YOSHIDA, Precursor [6-3H]Thymidine; read-out: IC 50

{"compound": "Cl.O=C1c2ccccc2-c2c1c1ccccc1c(=O)n2CCNCCO [I (X=2) Hydrochloride]", "measured target": "Yoshida ascites cells", "IC50, µM": 5}
